Values were extracted from paper PMC6430017.

Assay: Phase I metabolic stability assay
Details: human, liver microsomes
Provide the reported microsomal CLint at 3 µM of each item.
One number for each entry, in µL/min/mg.

Please report microsomal CLint at 3 µM for every entry that follows.
1. C=CC(=O)Nc1cc(NC(=O)NC2CCN(Cc3ccc(-c4nc5cc[nH]c(=O)c5cc4-c4ccccc4)cc3)CC2)ccc1Cl
2. C=CC(=O)Nc1ccc(C(=O)NC2CCN(Cc3ccc(-c4nc5cc[nH]c(=O)c5cc4-c4ccccc4)cc3)CC2)s1 [30f]
3. C=CC(=O)Nc1cccc(C(=O)NC2CCN(Cc3ccc(-c4nc5cc[nH]c(=O)c5cc4-c4ccccc4)cc3)CC2)c1 [30b]
4. CC(C)NC[C@@H](C(=O)N1CCN(c2ncnc3c2[C@H](C)C[C@H]3O)CC1)c1ccc(Cl)cc1 [Ipatasertib, reference compound]

1. 24
2. 12
3. 8
4. 12

====

Tested on: T47D
Assay: Cell viability assay (CellTiter-Glo)
Type: cell-based
Details: Homo sapiens, 120 h; T47D (breast), day 5; read-out: Cell viability assay EC50
I'd appreciate it if you could supply log10 of EC50 values for the items below.
A difference of one corresponds to tenfold EC50; all values are log10 with EC50 in nM.

Past entries and their recorded results:
C=CC(=O)Nc1cc(Br)cc(C(=O)NC2CCN(Cc3ccc(-c4nc5cc[nH]c(=O)c5cc4-c4ccccc4)cc3)CC2)c1 [30e]    2.25
C=CC(=O)Nc1ccc(N2CCN(Cc3ccc(-c4nc5cc[nH]c(=O)c5cc4-c4ccccc4)cc3)CC2)cc1 [compound 31]    2.92
COc1cccc2c1C(=O)c1c(O)c3c(c(O)c1C2=O)C[C@@](O)(C(=O)CO)C[C@@H]3O[C@H]1C[C@H](N)[C@H](O)[C@H](C)O1 [Doxorubicin, reference compound]    2.10
C=CC(=O)Nc1ccc(C(=O)NC2CCN(Cc3ccc(-c4nc5cc[nH]c(=O)c5cc4-c4ccccc4)cc3)CC2)c(F)c1 [30d]    2.74
C=CC(=O)Nc1cccc(CNC2CCN(Cc3ccc(-c4nc5cc[nH]c(=O)c5cc4-c4ccccc4)cc3)CC2)c1 [compound 32]    3.28

Given the entry C=CC(=O)Nc1ccc2c(c1)n(C1CCN(Cc3ccc(-c4nc5cc[nH]c(=O)c5cc4-c4ccccc4)cc3)CC1)c(=O)n2C [24b] , what log10 of EC50 was observed with T47D?
1.04

====

Biological target: full-length Akt (Akt^wt) (Homo sapiens)
Sequence (P31749 whole entry): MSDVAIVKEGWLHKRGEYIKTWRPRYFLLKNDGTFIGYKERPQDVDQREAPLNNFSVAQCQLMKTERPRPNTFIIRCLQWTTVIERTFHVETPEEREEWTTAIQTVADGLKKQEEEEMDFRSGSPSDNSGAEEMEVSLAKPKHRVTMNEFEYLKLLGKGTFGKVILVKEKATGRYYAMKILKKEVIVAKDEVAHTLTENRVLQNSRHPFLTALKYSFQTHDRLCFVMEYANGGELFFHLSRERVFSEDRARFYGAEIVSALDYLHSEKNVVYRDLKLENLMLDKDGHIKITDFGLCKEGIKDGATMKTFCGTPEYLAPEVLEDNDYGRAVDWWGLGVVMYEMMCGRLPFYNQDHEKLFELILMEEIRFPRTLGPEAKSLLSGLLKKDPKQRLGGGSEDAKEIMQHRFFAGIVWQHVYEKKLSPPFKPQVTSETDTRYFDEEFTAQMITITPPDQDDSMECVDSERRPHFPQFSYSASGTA
measurementKind: pIC50
Numbers only, as −log10 of the molar value.

C=CC(=O)Nc1cc(Br)cc(C(=O)NC2CCN(Cc3ccc(-c4nc5cc[nH]c(=O)c5cc4-c4ccccc4)cc3)CC2)c1 [30e]    8.43
C=CC(=O)Nc1ccc(C(=O)NC2CCN(Cc3ccc(-c4nc5cc[nH]c(=O)c5cc4-c4ccccc4)cc3)CC2)cc1 [30c]    6.55

Please go through the list and note pIC50 for each compound.
1. C=CC(=O)Nc1cc2c(cc1Cl)[nH]c(=O)n2C1CCN(Cc2ccc(-c3nc4cc[nH]c(=O)c4cc3-c3ccccc3)cc2)CC1 [24a]
2. C=CC(=O)Nc1cccc(CNC2CCN(Cc3ccc(-c4nc5cc[nH]c(=O)c5cc4-c4ccccc4)cc3)CC2)c1
3. C=CC(=O)Nc1ccc(C(=O)NC2CCN(Cc3ccc(-c4nc5cc[nH]c(=O)c5cc4-c4ccccc4)cc3)CC2)c(F)c1 [30d]
4. C=CC(=O)Nc1ccc2c(c1)n(C1CCN(Cc3ccc(-c4nc5cc[nH]c(=O)c5cc4-c4ccccc4)cc3)CC1)c(=O)n2C [24b]
5. CN(C)C/C=C/C(=O)Nc1ccc2[nH]c(=O)n(C3CCN(Cc4ccc(-c5nc6cc[nH]c(=O)c6cc5-c5ccccc5)cc4)CC3)c2c1 [24c]
6. C=CC(=O)Nc1ccc(C(=O)NC2CCN(Cc3ccc(-c4nc5cc[nH]c(=O)c5cc4-c4ccccc4)cc3)CC2)s1 [30f]

8.92
6.72
7.28
8.52
7.74
7.85

API: value(readout=pIC50, system=full-length Akt (Akt^wt) (Homo sapiens)) for record C=CC(=O)Nc1ccccc1C(=O)NC1CCN(Cc2ccc(-c3nc4cc[nH]c(=O)c4cc3-c3ccccc3)cc2)CC1 [30a]
7.97

====

Test: Phase I metabolic stability assay
Settings: human, microsomes
measurementKind: half-life at 1 h, 3 µM (h)
Numbers only, in h.

What measured half-life at 1 h, 3 µM goes with `C=CC(=O)Nc1ccc2[nH]c(=O)n(C3CCN(Cc4ccc(-c5nc6cc[nH]c(=O)c6cc5-c5ccccc5)cc4)CC3)c2c1` ?
1.65

====

Biological target: UniProt P31749
Experiment: Kinetic characterization by time-dependent IC50 measurements
Type: biochemical
Conditions: from time-dependent IC50
Record form. Attribute: kinact. Fill in for each entry.
Answers are plain numbers, in s⁻¹.

In the examples that follow, each entry is paired with its recorded kinact.
CN(C)C/C=C/C(=O)Nc1ccc2[nH]c(=O)n(C3CCN(Cc4ccc(-c5nc6cc[nH]c(=O)c6cc5-c5ccccc5)cc4)CC3)c2c1 [24c]    0.000833
C=CC(=O)Nc1cc(Br)cc(C(=O)NC2CCN(Cc3ccc(-c4nc5cc[nH]c(=O)c5cc4-c4ccccc4)cc3)CC2)c1 [30e]    0.0013
C=CC(=O)Nc1ccccc1C(=O)NC1CCN(Cc2ccc(-c3nc4cc[nH]c(=O)c4cc3-c3ccccc3)cc2)CC1 [30a]    0.0023
C=CC(=O)Nc1ccc2c(c1)n(C1CCN(Cc3ccc(-c4nc5cc[nH]c(=O)c5cc4-c4ccccc4)cc3)CC1)c(=O)n2C [24b]    0.00202
C=CC(=O)Nc1ccc(C(=O)NC2CCN(Cc3ccc(-c4nc5cc[nH]c(=O)c5cc4-c4ccccc4)cc3)CC2)c(F)c1 [30d]    0.00142

Could you report kinact for every entry in the following list?
1. C=CC(=O)Nc1ccc(C(=O)NC2CCN(Cc3ccc(-c4nc5cc[nH]c(=O)c5cc4-c4ccccc4)cc3)CC2)s1 [30f]
2. C=CC(=O)Nc1cccc(CNC2CCN(Cc3ccc(-c4nc5cc[nH]c(=O)c5cc4-c4ccccc4)cc3)CC2)c1
3. C=CC(=O)Nc1ccc(C(=O)NC2CCN(Cc3ccc(-c4nc5cc[nH]c(=O)c5cc4-c4ccccc4)cc3)CC2)cc1 [30c]

1. 0.00147
2. 0.00118
3. 0.0007

====

Experiment: Phase I metabolic stability assay
Settings: human, microsomes
measurementKind: microsomal CLint at 3 µM (µL/min/mg)
One number for each entry, in µL/min/mg.

Which microsomal CLint at 3 µM reading was recorded for the compound C=CC(=O)Nc1ccc2[nH]c(=O)n(C3CCN(Cc4ccc(-c5nc6cc[nH]c(=O)c6cc5-c5ccccc5)cc4)CC3)c2c1 [compound 1, borussertib] ?
5

====

Test: Phase I metabolic stability assay
Settings: human, liver microsomes
Exercise: for every item that follows, state its recorded half-life at 1 h, 3 µM.
Give bare numbers, in min.

Take a look at these entries with their results.
CC(C)NC[C@@H](C(=O)N1CCN(c2ncnc3c2[C@H](C)C[C@H]3O)CC1)c1ccc(Cl)cc1 [Ipatasertib, reference compound]    39
NC1(C(=O)N[C@@H](CCO)c2ccc(Cl)cc2)CCN(c2ncnc3[nH]ccc23)CC1 [Capivasertib, reference compound]    33
C=CC(=O)Nc1ccc2c(c1)n(C1CCN(Cc3ccc(-c4nc5cc[nH]c(=O)c5cc4-c4ccccc4)cc3)CC1)c(=O)n2C [24b]    25

Now for the molecule whose half-life at 1 h, 3 µM we want.
Would you mind telling me what half-life at 1 h, 3 µM value was observed for C=CC(=O)Nc1cc(Br)cc(C(=O)NC2CCN(Cc3ccc(-c4nc5cc[nH]c(=O)c5cc4-c4ccccc4)cc3)CC2)c1 [30e] ?
39

====

System: T47D
Assay: Cell viability assay (CellTiter-Glo)
Type: cell-based
Details: Homo sapiens, 120 h; T47D (breast), day 5; read-out: Cell viability assay EC50
pEC50: −log10 of the molar value.
Please use yes (1) for pEC50 under 7 and no (0) for everything else, ties included.

Previously resolved entries follow.
C=CC(=O)Nc1ccc(C(=O)NC2CCN(Cc3ccc(-c4nc5cc[nH]c(=O)c5cc4-c4ccccc4)cc3)CC2)s1 [30f]    yes (1)
CN(C)C/C=C/C(=O)Nc1ccc2[nH]c(=O)n(C3CCN(Cc4ccc(-c5nc6cc[nH]c(=O)c6cc5-c5ccccc5)cc4)CC3)c2c1 [24c]    yes (1)

Is it true that pEC50 reported for C=CC(=O)Nc1ccc(C(=O)NC2CCN(Cc3ccc(-c4nc5cc[nH]c(=O)c5cc4-c4ccccc4)cc3)CC2)cc1 [30c] is less than 7?
yes (1)

hey, is pEC50 for C=CC(=O)Nc1cc2c(cc1Cl)[nH]c(=O)n2C1CCN(Cc2ccc(-c3nc4cc[nH]c(=O)c4cc3-c3ccccc3)cc2)CC1 [24a] lower than 7 or not?
no (0)

API: query returns whether the molecule falls strictly under 7 in pEC50. Query: C=CC(=O)Nc1ccccc1C(=O)NC1CCN(Cc2ccc(-c3nc4cc[nH]c(=O)c4cc3-c3ccccc3)cc2)CC1 [30a]
no (0)
